System: HEK293
Assay protocol: Cytotoxic Profiling of Annotated Libraries Using Quantitative High-Throughput Screening (AID 1296008); note: nearly all actives have a fitted effect of over 60% in size
Settings: Five cell lines viability, CellTiter-Glo ATP luminescence, 48-72 h
Records with an inconclusive call do not appear. The source made the active and inactive calls. Calls come from the whole dose curve; as a rule, active = well fitted inhibition curve with a large enough effect; inconclusive = small, poorly fitted or top-dose-only effect; inactive = flat fitted curve, though single readings scatter.
Valid outcomes are listed here; reply with one: active, inactive

Record excerpt, results attached:
Compound	Class label
COc1c/c(=C2\C=c3ccccc3=N2)[nH]/c1=C\c1[nH]c(C)cc1C	active
O=C(c1cccc(Cl)c1F)N1CCN(Cc2cccc(Nc3nccs3)n2)CC1	active

Hi team, can someone confirm the assay call for C[C@]12C[C@@H](O)[C@@H]3C[C@@]1(O[C@@H]1O[C@H](CO)[C@@H](O)[C@H](O)[C@H]1O)[C@]3(COC(=O)c1ccccc1)C(=O)O2 ?
inactive

Hi team, can someone confirm the assay call for C[C@@H]1C[C@H]2O[C@@H]2/C=C\C=C\C(=O)Cc2c(Cl)c(O)cc(O)c2C(=O)O1 ?
active

Hi team, can someone confirm the assay call for O=C(CSc1nc2c(c(=O)n1-c1ccccc1)SCC2)Nc1ccc(-c2ccccc2)cn1 ?
active

Hi team, can someone confirm the assay call for CC(C)(C#N)c1ccc(N2C(=O)OCc3cnc4ccc(-c5cnc6ccccc6c5)cc4c32)cc1 ?
active

Hi team, can someone confirm the assay call for C=C1C(O)CC2C(C(=O)O)=COC(O[C@@H]3O[C@H](COC(=O)/C=C/c4ccc(O)cc4)[C@@H](O)[C@H](O)[C@H]3O)C12 (stereo partly drawn) ?
inactive

Hi team, can someone confirm the assay call for CN(C)C/C=C/C(=O)Nc1cc2c(Nc3ccc(F)c(Cl)c3)ncnc2cc1OC1CCOC1 (stereo not drawn) ?
active
